Recorded protein stability index, one value per entry.
System: Saccharomyces cerevisiae;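 also: PSI is a weighted mean of each variant's read distribution over the sorted stability bins, computed only for variants having over 10 reads in total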
experiment.summary: protein stability index of tFT-peptide fusion in deletion strain of DAS1 (PSI (0-1 scale)); higher = more stable (slower turnover)

>  <sequence.text>
RLIQPLPVQFLNG

>  <protein stability index>
0.655

$$$$
>  <sequence.text>
ARWRVGLWRGAP

>  <protein stability index>
0.681

$$$$
>  <sequence.text>
KVHKKGQKQKIN

>  <protein stability index>
0.64

$$$$
>  <sequence.text>
LKILRQKMNIQN

>  <protein stability index>
0.686

$$$$
>  <sequence.text>
LKILRQKMNHQT

>  <protein stability index>
0.671

$$$$
>  <sequence.text>
ARWRVGLWRGGS

>  <protein stability index>
0.684

$$$$
>  <sequence.text>
KKHKKGQHQKIN

>  <protein stability index>
0.579

$$$$
>  <sequence.text>
VVGAVGGWRLVG

>  <protein stability index>
0.69

$$$$
>  <sequence.text>
LVNYLSCVACIN

>  <protein stability index>
0.259

$$$$
>  <sequence.text>
ARWRVGLWRRAS

>  <protein stability index>
0.673

$$$$
>  <sequence.text>
FSMAWTFRYWVN

>  <protein stability index>
0.456

$$$$
>  <sequence.text>
KKHKKGQKQHIN

>  <protein stability index>
0.648

$$$$
>  <sequence.text>
RLIQPGPVQFLN

>  <protein stability index>
0.611

$$$$
>  <sequence.text>
LKILRQKMNHVN

>  <protein stability index>
0.666

$$$$
>  <sequence.text>
VSGAVGGWRLVG

>  <protein stability index>
0.672

$$$$
>  <sequence.text>
VRGCVGGWRLVG

>  <protein stability index>
0.655

$$$$
>  <sequence.text>
PSLAASFWRVVF

>  <protein stability index>
0.701

$$$$
>  <sequence.text>
LVVYLSCVACTN

>  <protein stability index>
0.0308

$$$$
>  <sequence.text>
PDQRNHLIKLLN

>  <protein stability index>
0.585

$$$$
>  <sequence.text>
KKHCKGQKQKIN

>  <protein stability index>
0.637

$$$$
>  <sequence.text>
VRYAVGGWRLVG

>  <protein stability index>
0.68

$$$$
>  <sequence.text>
CTSCGYKFRTNC

>  <protein stability index>
0.699

$$$$
>  <sequence.text>
VKHKKGQKQKIN

>  <protein stability index>
0.716

$$$$
>  <sequence.text>
FSMRITFRYWVN

>  <protein stability index>
0.336

$$$$
>  <sequence.text>
RLIQPLPVKFLN

>  <protein stability index>
0.584

$$$$
>  <sequence.text>
FSMRRTFRYWVN

>  <protein stability index>
0.616

$$$$
>  <sequence.text>
LKILRYKMNHQN

>  <protein stability index>
0.64

$$$$
>  <sequence.text>
KKHKKGNKQKIN

>  <protein stability index>
0.601

$$$$
>  <sequence.text>
ARWRVGLWNGAS

>  <protein stability index>
0.664

$$$$
>  <sequence.text>
AWWRVGLWRGAS

>  <protein stability index>
0.68

$$$$
>  <sequence.text>
VRQAVGGWRLVG

>  <protein stability index>
0.684

$$$$
>  <sequence.text>
LVVYLSCVACGN

>  <protein stability index>
0.0998

$$$$
>  <sequence.text>
PDGRNHLIKLLN

>  <protein stability index>
0.601

$$$$
>  <sequence.text>
RLIQPVPVQFLN

>  <protein stability index>
0.583

$$$$
>  <sequence.text>
LKKLRQKMNHQN

>  <protein stability index>
0.68

$$$$
>  <sequence.text>
PDKRNHQIKLLN

>  <protein stability index>
0.609

$$$$
>  <sequence.text>
PDKRNHLIDLLN

>  <protein stability index>
0.624

$$$$
>  <sequence.text>
PSLANSFWRVVG

>  <protein stability index>
0.711

$$$$
>  <sequence.text>
PSLAASFWMVVG

>  <protein stability index>
0.637

$$$$
>  <sequence.text>
ARWRVGLWRGES

>  <protein stability index>
0.695

$$$$
>  <sequence.text>
LVVYLSCHACIN

>  <protein stability index>
0.0466

$$$$
>  <sequence.text>
PDKRNHLIKSLN

>  <protein stability index>
0.627

$$$$
>  <sequence.text>
IDKRNHLIKLLN

>  <protein stability index>
0.584

$$$$
>  <sequence.text>
RRIQPLPVQFLN

>  <protein stability index>
0.601

$$$$
>  <sequence.text>
RQIQPLPVQFLN

>  <protein stability index>
0.604

$$$$
>  <sequence.text>
PSLAASFWRVVGD

>  <protein stability index>
0.691

$$$$
>  <sequence.text>
VRGAVGGWQLVG

>  <protein stability index>
0.689

$$$$
>  <sequence.text>
KKHKKGQIQKIN

>  <protein stability index>
0.569

$$$$
>  <sequence.text>
CTFCGYKFRTNN

>  <protein stability index>
0.719

$$$$
>  <sequence.text>
LVVYLSCVACINE

>  <protein stability index>
0.0324

$$$$
>  <sequence.text>
CTSCGYKFRTNP

>  <protein stability index>
0.701

$$$$
>  <sequence.text>
LVVYLSCRACIN

>  <protein stability index>
0.0311

$$$$
>  <sequence.text>
KWHKKGQKQKIN

>  <protein stability index>
0.562

$$$$
>  <sequence.text>
PFLAASFWRVVG

>  <protein stability index>
0.693

$$$$
>  <sequence.text>
KKHKKGQKLKIN

>  <protein stability index>
0.562

$$$$
>  <sequence.text>
TSLAASFWRVVG

>  <protein stability index>
0.688

$$$$
>  <sequence.text>
PDKRNHLICLLN

>  <protein stability index>
0.608

$$$$
>  <sequence.text>
ARWRVGLWRGVS

>  <protein stability index>
0.689

$$$$
>  <sequence.text>
LVVYLKCVACIN

>  <protein stability index>
0.0351

$$$$
>  <sequence.text>
PDKRFHLIKLLN

>  <protein stability index>
0.672

$$$$
>  <sequence.text>
NTSCGYKFRTNN

>  <protein stability index>
0.68

$$$$
>  <sequence.text>
LKILRQKMNHEN

>  <protein stability index>
0.671

$$$$
>  <sequence.text>
NDKRNHLIKLLN

>  <protein stability index>
0.609

$$$$
>  <sequence.text>
LKILRQKPNHQN

>  <protein stability index>
0.675

$$$$
